Where these numbers come from: PubChem BioAssay

Reported values of composite z-score for individual entries
System: Sonic hedgehog protein (Shh)
TEST_SUMMARY: small-molecule binders of Shh protein, primary screen, biochemical, small-molecule microarray, 635/667 nm fluorescence (AID 1151);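 further: Shh protein binding to compounds spotted on small-molecule microarray slides; score combines spot fluorescence intensity with signal-to-noise across triplicate slides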
CONDITION_INFO: small-molecule microarray binding, 635 nm fluorescence; higher = more signal

MOLECULE	composite z-score
C=C(COC)/C(=C/C[C@H](OC(C)=O)c1ccc(CO)o1)c1cnc2ccccc2c1	2.15
CCOC(=O)C[C@H]1[C@H](OC(=O)Cc2ccc3c(c2)OCO3)[C@@H](NC(=O)c2ccc3ccccc3c2)c2cc(OCCCO)ccc2N1C(=O)c1ccc2ccccc2n1	0.555
C=CCN1C(=O)[C@@]2(O[C@@H](CCO)[C@H]([Si](C)(C)c3ccc(OC)cc3)[C@H]2C)c2cc(N3C(=O)c4cccc5cccc3c45)ccc21	0.567
CCCNC(=O)[C@@H]1c2ccccc2C(=O)N(Cc2cc(C(F)(F)F)cc(C(F)(F)F)c2)[C@H]1c1ccc(CO)cc1	1
O=C1O[C@@H](c2ccccc2)[C@@H](c2ccccc2)N2[C@@H](c3ccc(OCCO)cc3)[C@]3(C(=O)Nc4ccc(C#CC5(O)CCCCCC5)cc43)[C@@H](C(=O)NC[C@H](O)c3ccccc3)[C@H]12	0.855
C=CCC(OC(C)=O)[C@@H]1[C@@H](N(Cc2ccc(-c3cccc(C(F)(F)F)c3)o2)C(=O)c2ccc(-c3ccccc3)cc2)c2cc(OCCCO)ccc2N1C(=O)Cc1ccc(OC)cc1 (stereo partly specified)	0.214
